Measured values drawn from patent US20260174716A1 for this set.

experiment: In vitro hepatocyte metabolic stability, human; format: in vitro ADME; settings: hepatocytes (cryopreserved, suspension), 0.5×10^6 cells/mL, read-out: CLint (liver)
Readout Kind: CLint scaled at 1 μM (mL/min/kg)
Your answer is read as mL/min/kg, so omit the unit and give the number.

Ask | Data request, read-out CLint scaled at 1 μM, for COC12CC([C@H](CC(=O)O)c3ccc(Cl)c(NC(=O)[C@H](c4ccc(Cl)cc4)[C@@H](C)C(F)(F)F)c3)(C1)C2 [Compound of formula (I)]
Reply | 24.9
